# method: in vivo
# cond: mouse, in vivo, po, 2000 mg/kg, % of deaths in 24 h, female mice, 2000 mg/kg peroral
# Method: In the test mice of Han-NMRI strain of both sexes, weight 19 to 24 g, and female rats of Han-WISTAR strain, weight 220 to 250 g, were used. The active substance was suspended in arachis oil and applied perorally. The volume of the applied suspension was 0.2 ml/20 g body weight in mice and 0.2 ml/200 g body weight in rats. Before the test the animals were fasted for 24 hours and after application, water and food were available ad libitum.
result.type: mortality at 24 h
Mention the unit after the number when you answer.

compound | measured.result
CC(C)Cc1ccc([C@H](C)C(=O)NO)cc1 [S-(+)-ibuproxam] | 0%

We next turn to a different compound, shown below.
Which mortality at 24 h is listed for CC(C)Cc1ccc([C@H](C)C(=O)O)cc1 [S-(+)-ibuprofen] ?
10%

---

# method: in vivo
# cond: rat, po
result.type: LD50

Which LD50 is listed for CC(C)Cc1ccc([C@H](C)C(=O)O)cc1 [S-(+)-ibuprofen] ?
< 1000 mg/kg

---

# method: in vivo
# cond: mouse, in vivo, po, 1000 mg/kg, % of deaths after 15 days, female mice, 1000 mg/kg peroral
result.type: mortality at 360 h (%)
Report the figure in % without appending any unit label.

Which mortality at 360 h is listed for CC(C)Cc1ccc([C@H](C)C(=O)O)cc1 [S-(+)-ibuprofen] ?
10
